Test: Stability in rhesus monkey liver microsomes assessed as residual compound after 45 mins
Assay type: ADME, Macaca mulatta
Settings: read-out: Stability
parameter: remaining at 0.75 h (%)
Please respond with the number in % and leave the unit unwritten.

Ask: // returns reported remaining at 0.75 h for input O=C(c1ccc(C[C@@H]2CC[C@H]([C@H](O)c3ccccc3)N2)cc1)N1C[C@@H]2[C@H](C1)[C@H]2c1nnco1
Result: 80

###

# IC50 per entry for UniProt Q12809
# Sequence (Q12809 whole entry): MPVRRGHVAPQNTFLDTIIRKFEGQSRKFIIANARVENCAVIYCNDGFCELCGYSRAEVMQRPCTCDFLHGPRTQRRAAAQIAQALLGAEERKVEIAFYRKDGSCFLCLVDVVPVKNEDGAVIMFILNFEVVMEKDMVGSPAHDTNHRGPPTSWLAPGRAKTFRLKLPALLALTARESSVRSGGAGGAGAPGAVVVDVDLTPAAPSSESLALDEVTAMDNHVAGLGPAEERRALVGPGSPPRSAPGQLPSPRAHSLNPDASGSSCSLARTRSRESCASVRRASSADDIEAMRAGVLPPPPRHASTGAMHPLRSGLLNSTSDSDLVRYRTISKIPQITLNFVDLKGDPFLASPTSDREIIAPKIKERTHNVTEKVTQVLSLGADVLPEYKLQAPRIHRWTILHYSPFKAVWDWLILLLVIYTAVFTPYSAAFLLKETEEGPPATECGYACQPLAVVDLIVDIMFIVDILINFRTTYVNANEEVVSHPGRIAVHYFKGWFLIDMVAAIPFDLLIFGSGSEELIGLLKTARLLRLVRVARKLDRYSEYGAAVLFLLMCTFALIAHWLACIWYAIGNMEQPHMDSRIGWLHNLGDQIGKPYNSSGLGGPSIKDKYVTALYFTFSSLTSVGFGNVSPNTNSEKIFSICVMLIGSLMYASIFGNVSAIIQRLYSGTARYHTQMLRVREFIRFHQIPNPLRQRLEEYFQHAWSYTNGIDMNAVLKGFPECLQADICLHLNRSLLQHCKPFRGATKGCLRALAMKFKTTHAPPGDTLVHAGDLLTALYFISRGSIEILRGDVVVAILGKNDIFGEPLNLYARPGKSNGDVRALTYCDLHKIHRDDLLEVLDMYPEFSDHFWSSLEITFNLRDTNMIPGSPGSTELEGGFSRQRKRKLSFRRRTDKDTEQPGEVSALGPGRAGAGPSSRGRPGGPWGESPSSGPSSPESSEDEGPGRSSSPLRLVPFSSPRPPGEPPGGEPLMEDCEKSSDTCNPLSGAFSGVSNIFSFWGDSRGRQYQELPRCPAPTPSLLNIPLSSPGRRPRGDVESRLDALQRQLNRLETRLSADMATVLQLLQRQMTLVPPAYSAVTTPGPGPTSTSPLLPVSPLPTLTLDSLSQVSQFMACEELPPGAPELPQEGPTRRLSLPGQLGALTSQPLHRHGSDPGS
Please respond with the number in µM and leave the unit unwritten.

O=C(c1ccc(C[C@@H]2CC[C@H]([C@H](O)c3ccccc3)N2)cc1)N1CCC2(CCOC2=O)CC1    46

Ask: Under UniProt Q12809: IC50 value of CC1(C)CC2(CCN(C(=O)c3ccc(C[C@@H]4CC[C@H]([C@H](O)c5ccccc5)N4)cc3)CC2)C(=O)O1 ?
Result: 31

Ask: Under UniProt Q12809: IC50 value of O=C(c1ccc(C[C@@H]2CC[C@H]([C@H](O)c3ccccc3)N2)cc1)N1C[C@@H]2[C@H](C1)[C@H]2c1nnco1 ?
Result: 55

Ask: Under UniProt Q12809: IC50 value of Cn1nnc([C@H]2[C@@H]3CN(C(=O)c4ccc(C[C@@H]5CC[C@H]([C@H](O)c6ccccc6)N5)cc4)C[C@@H]32)n1 ?
Result: 17

###

Experiment: Stability in human hepatocytes assessed as residual compound after 60 mins
Type: ADME, cell-based, Hepatocyte
Conditions: read-out: Stability
parameter: remaining at 1 h

Ask: // returns reported remaining at 1 h for input O=C(c1ccc(C[C@@H]2CC[C@H]([C@H](O)c3ccccc3)N2)cc1)N1C[C@@H]2[C@H](C1)[C@H]2c1nnco1
Result: ≥ 85%

###

Assay: Stability in dog hepatocytes assessed as residual compound after 60 mins
Format: ADME, cell-based, Canis lupus familiaris, Hepatocyte
Conditions: read-out: Stability
parameter: remaining at 1 h

Ask: // returns reported remaining at 1 h for input O=C(c1ccc(C[C@@H]2CC[C@H]([C@H](O)c3ccccc3)N2)cc1)N1C[C@@H]2[C@H](C1)[C@H]2c1nnco1
Result: ≥ 85%

###

Assay: Oral bioavailability in dog at 2 mg/kg
Assay type: ADME, organism-based, Canis lupus familiaris
Conditions: in vivo
Catalogue of bioavailability values
Please format your answer as a value with the unit trailing.

Illustrative cases are given below, each with its answer.
Cn1nnc([C@H]2[C@@H]3CN(C(=O)c4ccc(C[C@@H]5CC[C@H]([C@H](O)c6ccccc6)N5)cc4)C[C@@H]32)n1    51%
O=C(c1ccc(C[C@@H]2CC[C@H]([C@H](O)c3ccccc3)N2)cc1)N1CCC2(CCOC2=O)CC1    17%

Ask: // returns reported bioavailability for input CCc1nnc([C@H]2[C@@H]3CN(C(=O)c4ccc(C[C@@H]5CC[C@H]([C@H](O)c6ccccc6)N5)cc4)C[C@@H]32)o1
Result: 44%

###

Experiment: Volume of distribution in rat at 1 mg/kg, iv or 2 mg/kg, po
Format: ADME, organism-based
Conditions: in vivo
parameter: Vd (L/kg)
Please respond with the number in L/kg and leave the unit unwritten.

Illustrative cases are given below, each with its answer.
CC1(C)CC2(CCN(C(=O)c3ccc(C[C@@H]4CC[C@H]([C@H](O)c5ccccc5)N4)cc3)CC2)C(=O)O1    9.5
O=C(c1ccc(C[C@@H]2CC[C@H]([C@H](O)c3ccccc3)N2)cc1)N1CCC2(CCOC2=O)CC1    7.2

Ask: // returns reported Vd for input CCc1nnc([C@H]2[C@@H]3CN(C(=O)c4ccc(C[C@@H]5CC[C@H]([C@H](O)c6ccccc6)N5)cc4)C[C@@H]32)o1
Result: 9.3

Ask: // returns reported Vd for input O=C(c1ccc(C[C@@H]2CC[C@H]([C@H](O)c3ccccc3)N2)cc1)N1C[C@@H]2[C@H](C1)[C@H]2c1nnco1
Result: 9

Ask: // returns reported Vd for input Cn1nnc([C@H]2[C@@H]3CN(C(=O)c4ccc(C[C@@H]5CC[C@H]([C@H](O)c6ccccc6)N5)cc4)C[C@@H]32)n1
Result: 6.5

###

Experiment: Oral bioavailability in rat at 2 mg/kg
Format: ADME, organism-based
Conditions: in vivo
I would appreciate it if you labelled entries MET when bioavailability is 40% or higher, otherwise NOT MET.

Ask: Has CC1(C)CC2(CCN(C(=O)c3ccc(C[C@@H]4CC[C@H]([C@H](O)c5ccccc5)N4)cc3)CC2)C(=O)O1 a recorded bioavailability greater than or equal to 40%?
Result: NOT MET

Ask: Has O=C(c1ccc(C[C@@H]2CC[C@H]([C@H](O)c3ccccc3)N2)cc1)N1C[C@@H]2[C@H](C1)[C@H]2c1nnco1 a recorded bioavailability greater than or equal to 40%?
Result: MET

Ask: Has O=C(c1ccc(C[C@@H]2CC[C@H]([C@H](O)c3ccccc3)N2)cc1)N1CCC2(CCOC2=O)CC1 a recorded bioavailability greater than or equal to 40%?
Result: NOT MET

Ask: Has Cn1nnc([C@H]2[C@@H]3CN(C(=O)c4ccc(C[C@@H]5CC[C@H]([C@H](O)c6ccccc6)N5)cc4)C[C@@H]32)n1 a recorded bioavailability greater than or equal to 40%?
Result: MET

Ask: Has CCc1nnc([C@H]2[C@@H]3CN(C(=O)c4ccc(C[C@@H]5CC[C@H]([C@H](O)c6ccccc6)N5)cc4)C[C@@H]32)o1 a recorded bioavailability greater than or equal to 40%?
Result: NOT MET

###

Assay: Half life in dog at 0.5 mg/kg, iv or 2 mg/kg, po
Assay type: ADME, organism-based, Canis lupus familiaris
Details: in vivo
Catalogue of half-life values
Please respond with the number in h and leave the unit unwritten.

Illustrative cases are given below, each with its answer.
O=C(c1ccc(C[C@@H]2CC[C@H]([C@H](O)c3ccccc3)N2)cc1)N1CCC2(CCOC2=O)CC1    3.2
CCc1nnc([C@H]2[C@@H]3CN(C(=O)c4ccc(C[C@@H]5CC[C@H]([C@H](O)c6ccccc6)N5)cc4)C[C@@H]32)o1    3.7

Ask: // returns reported half-life for input Cn1nnc([C@H]2[C@@H]3CN(C(=O)c4ccc(C[C@@H]5CC[C@H]([C@H](O)c6ccccc6)N5)cc4)C[C@@H]32)n1
Result: 3.7

###

Catalogue of %max values
Molecular target: Beta-3 adrenergic receptor (Homo sapiens)
Experiment: Agonist activity at human beta-3 adrenergic receptor expressed in CHO cells assessed as increase in cAMP level after 30 mins by LANCE TR-FRET assay relative to R-(-)-isoproterenol
Assay type: functional, cell-based
Sequence (P13945 whole entry, looked up): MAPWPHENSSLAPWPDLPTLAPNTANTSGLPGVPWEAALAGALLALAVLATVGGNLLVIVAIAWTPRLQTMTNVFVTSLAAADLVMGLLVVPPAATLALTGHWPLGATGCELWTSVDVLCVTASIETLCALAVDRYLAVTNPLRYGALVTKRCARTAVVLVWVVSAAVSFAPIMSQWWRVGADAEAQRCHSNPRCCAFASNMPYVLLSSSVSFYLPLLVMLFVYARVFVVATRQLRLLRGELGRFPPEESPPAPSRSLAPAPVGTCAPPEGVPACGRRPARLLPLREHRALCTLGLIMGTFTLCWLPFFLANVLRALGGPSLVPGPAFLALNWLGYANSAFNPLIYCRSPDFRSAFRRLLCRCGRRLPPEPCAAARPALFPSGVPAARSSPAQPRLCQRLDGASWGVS
Please respond with the number in % and leave the unit unwritten.

Illustrative cases are given below, each with its answer.
CCS(=O)(=O)C1CCN(C(=O)c2ccc(C[C@@H]3CC[C@H]([C@H](O)c4ccccc4)N3)cc2)CC1    100
CC1(C)CC2(CCN(C(=O)c3ccc(C[C@@H]4CC[C@H]([C@H](O)c5ccccc5)N4)cc3)CC2)C(=O)O1    85
Nc1nc(CC(=O)Nc2ccc(C[C@@H]3CC[C@H]([C@H](O)c4ccccc4)N3)cc2)cs1    99
CCOC(=O)[C@H]1[C@@H]2CN(C(=O)c3ccc(C[C@@H]4CC[C@H]([C@H](O)c5ccccc5)N4)cc3)C[C@@H]21    90

Lab note: next compound to report on.
Ask: // returns reported %max for input O=C(c1ccc(C[C@@H]2CC[C@H]([C@H](O)c3ccccc3)N2)cc1)N1CCC2(CCOC2=O)CC1
Result: 89

###

Catalogue of clearance values
Assay: Plasma clearance in rat at 1 mg/kg, iv or 2 mg/kg, po
Assay type: ADME, organism-based
Please format your answer as a value with the unit trailing.

Ask: // returns reported clearance for input Cn1nnc([C@H]2[C@@H]3CN(C(=O)c4ccc(C[C@@H]5CC[C@H]([C@H](O)c6ccccc6)N5)cc4)C[C@@H]32)n1
Result: 29 mL/min/kg

Ask: // returns reported clearance for input O=C(c1ccc(C[C@@H]2CC[C@H]([C@H](O)c3ccccc3)N2)cc1)N1C[C@@H]2[C@H](C1)[C@H]2c1nnco1
Result: 62 mL/min/kg

Ask: // returns reported clearance for input CCc1nnc([C@H]2[C@@H]3CN(C(=O)c4ccc(C[C@@H]5CC[C@H]([C@H](O)c6ccccc6)N5)cc4)C[C@@H]32)o1
Result: 56 mL/min/kg

Ask: // returns reported clearance for input O=C(c1ccc(C[C@@H]2CC[C@H]([C@H](O)c3ccccc3)N2)cc1)N1CCC2(CCOC2=O)CC1
Result: 56 mL/min/kg

Ask: // returns reported clearance for input CC1(C)CC2(CCN(C(=O)c3ccc(C[C@@H]4CC[C@H]([C@H](O)c5ccccc5)N4)cc3)CC2)C(=O)O1
Result: 86 mL/min/kg

###

Biological target: Beta-3 adrenergic receptor (Homo sapiens, UniProt P13945)
Test: Agonist activity at human beta-3 adrenergic receptor expressed in CHO cells assessed as increase in cAMP level after 30 mins by LANCE TR-FRET assay
Sequence (P13945 whole entry): as the sequence (P13945 whole entry, looked up) above
Catalogue of EC50 values

Nc1nc(CNC(=O)c2ccc(C[C@@H]3CC[C@H]([C@H](O)c4ccccc4)N3)cc2)cs1    24 nM

Ask: // returns reported EC50 for input CCOC(=O)[C@@H]1[C@@H]2CN(C(=O)c3ccc(C[C@@H]4CC[C@H]([C@H](O)c5ccccc5)N4)cc3)C[C@@H]21
Result: 75 nM

Ask: // returns reported EC50 for input CCS(=O)(=O)C1CCN(C(=O)c2ccc(C[C@@H]3CC[C@H]([C@H](O)c4ccccc4)N3)cc2)CC1
Result: 9.7 nM

Ask: // returns reported EC50 for input O=C(Nc1ccc(C[C@@H]2CC[C@H]([C@H](O)c3cccnc3)N2)cc1)C1CCc2ccnn21 (some centres undefined)
Result: 3.7 nM
